Cited source: patent US5919769A

# target-desc: L-selectin
# measurement-description: Inhibitory test on the binding of L-selectin to sialyl Le^X (selectin-IgG chimera)
# assay-conditions: inhibition of L-selectin IgG chimera binding to sialyl Le^X-pentaceramide; sodium salt
# Method: The experiment was carried out according to the method using selectin-IgG chimera, which was reported by Foxall, C. et al. (J. Cell Biol., 117, 895-902 (1992)). Sialyl Le^X -pentaceramide was dissolved in 50% methanol in distilled water, and the solution was put into a 96-well plate in an amount of 100 pmol/well. The plate was allowed to stand at room temperature overnight, and the solvent therein was evaporated. […] IC50 was evaluated by probit method from the binding rate. […]
pIC50: −log10 of the molar value. Counter-ions that a name gives are not always drawn.

{"molecule": "CCCCCCCCCCCCCCC(CCCCCCCCCCCCCC)C(=O)N[C@@H](CO[C@@H]1O[C@H]([C@H](C)O)[C@@H](O)[C@@H]1O)C(=O)N[C@H](CCC(=O)O)C(=O)NC [compound h, sodium salt]", "target-desc": "L-selectin", "pIC50": 6.52}
